FYI, the data here is from ChEMBL document CHEMBL1156224.

Attribute: MBC
- System: Staphylococcus epidermidis
- method_summary: Antibacterial activity against Staphylococcus epidermidis RP62A assessed as colony number after 24 hrs microdilution agar plate method
- Format: functional
assay_endpoint: MBC

- given_smiles: "CN(C)c1ccc(/C=C2\\S/C(=N\\c3ccccc3)N(c3ccccc3)C2=O)cc1"
  target_of_assay: "Staphylococcus epidermidis"
  assay_value: "> 200 µM"
- given_smiles: "CCc1ccccc1/N=C1\\S/C(=C\\c2ccc(OCC(=O)OC)cc2)C(=O)N1c1ccccc1CC"
  target_of_assay: "Staphylococcus epidermidis"
  assay_value: "> 200 µM"
- given_smiles: "CCc1ccccc1/N=C1\\S/C(=C\\c2ccc(-c3cccc(C(=O)O)c3)o2)C(=O)N1c1ccccc1CC"
  target_of_assay: "Staphylococcus epidermidis"
  assay_value: "25 µM"
- given_smiles: "CCc1ccccc1/N=C1\\S/C(=C\\c2cccc(OCC(=O)O)c2)C(=O)N1c1ccccc1CC"
  target_of_assay: "Staphylococcus epidermidis"
  assay_value: "100 µM"
- given_smiles: "CCc1ccccc1/N=C1\\S/C(=C\\c2ccc(OCC(=O)O)c(OC)c2)C(=O)N1c1ccccc1CC"
  target_of_assay: "Staphylococcus epidermidis"
  assay_value: "100 µM"
- given_smiles: "COc1ccc(/N=C2\\S/C(=C\\c3ccc(-c4cccc(C(=O)O)c4)o3)C(=O)N2c2ccc(OC)cc2)cc1"
  target_of_assay: "Staphylococcus epidermidis"
  assay_value: "25 µM"
- given_smiles: "COC(=O)COc1ccc(/C=C2\\S/C(=N\\c3ccccc3C)N(c3ccccc3C)C2=O)cc1"
  target_of_assay: "Staphylococcus epidermidis"
  assay_value: "> 200 µM"
- given_smiles: "COC(=O)COc1ccc(/C=C2\\S/C(=N\\c3ccccc3C)N(c3ccccc3C)C2=O)cc1OC"
  target_of_assay: "Staphylococcus epidermidis"
  assay_value: "> 200 µM"
- given_smiles: "Cc1ccccc1/N=C1\\S/C(=C\\c2ccc(OCC(=O)O)cc2)C(=O)N1c1ccccc1C"
  target_of_assay: "Staphylococcus epidermidis"
  assay_value: "> 200 µM"
- given_smiles: "Cc1ccccc1/N=C1\\S/C(=C\\c2ccc(-c3cccc(C(=O)O)c3)o2)C(=O)N1c1ccccc1C"
  target_of_assay: "Staphylococcus epidermidis"
  assay_value: "25 µM"
- given_smiles: "CCc1ccccc1/N=C1\\S/C(=C\\c2cccc(OCC(=O)OC)c2)C(=O)N1c1ccccc1CC"
  target_of_assay: "Staphylococcus epidermidis"
  assay_value: "> 200 µM"
- given_smiles: "Cc1ccccc1/N=C1\\S/C(=C\\c2ccc(O)cc2)C(=O)N1c1ccccc1C"
  target_of_assay: "Staphylococcus epidermidis"
  assay_value: "> 200 µM"
- given_smiles: "COc1cc(/C=C2\\S/C(=N\\c3ccccc3C)N(c3ccccc3C)C2=O)ccc1OCC(=O)O"
  target_of_assay: "Staphylococcus epidermidis"
  assay_value: "> 200 µM"
- given_smiles: "COC(=O)c1cccc(-c2ccc(/C=C3\\S/C(=N\\c4ccc(C)cc4)N(c4ccc(C)cc4)C3=O)o2)c1"
  target_of_assay: "Staphylococcus epidermidis"
  assay_value: "> 200 µM"
- given_smiles: "COc1cc(/C=C2\\S/C(=N\\c3ccccc3)N(c3ccccc3)C2=O)ccc1O"
  target_of_assay: "Staphylococcus epidermidis"
  assay_value: "> 200 µM"
- given_smiles: "CCc1ccccc1/N=C1\\S/C(=C\\c2cccc(O)c2)C(=O)N1c1ccccc1CC"
  target_of_assay: "Staphylococcus epidermidis"
  assay_value: "> 200 µM"
- given_smiles: "COC(=O)c1cccc(-c2ccc(/C=C3\\S/C(=N\\c4ccc(OC)cc4)N(c4ccc(OC)cc4)C3=O)o2)c1"
  target_of_assay: "Staphylococcus epidermidis"
  assay_value: "> 200 µM"
- given_smiles: "Cc1ccc(/N=C2\\S/C(=C\\c3ccc(-c4cccc(C(=O)O)c4)o3)C(=O)N2c2ccc(C)cc2)cc1"
  target_of_assay: "Staphylococcus epidermidis"
  assay_value: "25 µM"
